The reported numbers originate from ChEMBL document CHEMBL5136974.

property: Kd

Per the reported Polycomb protein EED (Homo sapiens) data, Cc1nc(CCC(=O)NCCOc2ccc(OCC(=O)N[C@H](C(=O)N3C[C@H](O)C[C@H]3C(=O)NCc3ccc(-c4scnc4C)cc3)C(C)(C)C)cc2)ccc1-c1cnc(NCc2c(F)ccc3c2CCO3)n2cnnc12 has Kd of 1 nM

---

Tested on: SK-BR-3
experimentDescription: Antiproliferative activity against human SK-BR-3 cells
Assay type: functional, cell-based
property: IC50 (nM)
State the answer as a number, implicitly in nM.

Sample Cc1ncsc1-c1ccc(CNC(=O)[C@@H]2C[C@@H](O)CN2C(=O)[C@@H](NC(=O)COCCOCCOc2ccc(-c3ccc4ncnc(Nc5ccc(OCc6cccc(F)c6)c(Cl)c5)c4c3)cc2)C(C)(C)C)cc1 ; IC50 observed: 102

---

measuredTarget: Dihydroorotate dehydrogenase (quinone), mitochondrial (Homo sapiens, UniProt Q02127)
Sequence (Q02127 whole entry): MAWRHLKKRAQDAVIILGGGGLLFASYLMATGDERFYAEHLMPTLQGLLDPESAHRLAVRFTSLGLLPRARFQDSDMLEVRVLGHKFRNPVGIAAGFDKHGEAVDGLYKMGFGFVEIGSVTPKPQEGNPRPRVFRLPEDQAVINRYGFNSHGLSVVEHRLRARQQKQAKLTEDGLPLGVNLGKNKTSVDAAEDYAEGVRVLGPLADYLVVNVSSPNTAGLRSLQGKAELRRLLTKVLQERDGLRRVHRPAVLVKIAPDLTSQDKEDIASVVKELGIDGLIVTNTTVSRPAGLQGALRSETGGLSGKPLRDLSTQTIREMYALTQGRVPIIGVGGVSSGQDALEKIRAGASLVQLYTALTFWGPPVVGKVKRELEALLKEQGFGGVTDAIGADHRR
experimentDescription: Inhibition of DHODH (unknown origin)
property: pIC50
pIC50 field: float, defined as -log10 of concentration (mol/L).

What the record says about Cc1ncsc1-c1ccc(CNC(=O)[C@@H]2C[C@@H](O)CN2C(=O)[C@@H](NC(=O)OCCOCCOCCOc2ccc(-c3ccc(-c4nc5ccc(F)cc5c(C(=O)O)c4C)cc3)cc2)C(C)(C)C)cc1 : pIC50 is 7.03
